target: KAT5 (Homo sapiens, UniProt Q92993)
Sequence (Q92993 with tags, fused parts or gaps): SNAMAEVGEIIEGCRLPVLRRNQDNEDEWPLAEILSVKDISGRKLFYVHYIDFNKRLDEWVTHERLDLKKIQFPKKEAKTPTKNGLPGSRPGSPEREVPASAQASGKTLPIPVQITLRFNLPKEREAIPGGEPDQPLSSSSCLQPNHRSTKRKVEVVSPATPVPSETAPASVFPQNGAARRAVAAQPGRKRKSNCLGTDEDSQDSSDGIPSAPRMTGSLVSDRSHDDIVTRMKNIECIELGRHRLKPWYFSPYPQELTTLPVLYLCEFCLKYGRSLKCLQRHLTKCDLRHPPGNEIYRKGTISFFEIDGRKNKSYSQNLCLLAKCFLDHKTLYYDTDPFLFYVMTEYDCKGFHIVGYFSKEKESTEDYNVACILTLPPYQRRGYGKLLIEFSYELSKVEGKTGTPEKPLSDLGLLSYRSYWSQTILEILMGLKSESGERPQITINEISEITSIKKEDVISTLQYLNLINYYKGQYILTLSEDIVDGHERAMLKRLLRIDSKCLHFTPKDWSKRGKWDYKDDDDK
Counter-ions that a name gives are not always drawn.
assay-readout: IC50

INSERT INTO assay_data (molecule, assay_readout, value_reported) VALUES
  ('O=C(NNS(=O)(=O)c1ccc2ccccc2c1)c1ccccc1', 'IC50', '> 100 µM'),
  ('Cc1cc(-c2ccccc2)cc(C(=O)NNS(=O)(=O)C2CNC2)c1F [Compound I-120, hydrochloride]', 'IC50', '> 100 µM'),
  ('O=C(NNS(=O)(=O)C1CCCCC1)c1c(F)c(-c2ccccc2)cc2nc[nH]c12', 'IC50', '> 100 µM'),
  ('COc1cc(F)cc(-c2cc(Cl)c(F)c(C(=O)NNS(=O)(=O)C3CCCCC3)c2)c1', 'IC50', '10 to 50 µM'),
  ('Cc1cc(-c2ccc(C(C)C)cc2)cc(C(=O)NNS(=O)(=O)c2ccccc2)c1F', 'IC50', '> 100 µM'),
  ('Cc1cc(-c2ccccc2)cc(C(=O)NNS(=O)(=O)CC2CCCNC2)c1F (stereo not shown)', 'IC50', '10 to 50 µM'),
  ('Cc1cc(-c2ccccc2)cc(C(=O)NNS(=O)(=O)CC2CN(C(=O)OC(C)(C)C)C2)c1F', 'IC50', '≤ 10 µM'),
  ('Cc1cc(-c2cccc(F)c2)cc(C(=O)NNS(=O)(=O)CC2CN(C(=O)OC(C)(C)C)CCO2)c1F (stereo not shown)', 'IC50', '≤ 10 µM'),
  ('CNC(=O)CCNC(=O)c1cc(Cl)c(F)c(C(=O)NNS(=O)(=O)C2CCCCC2)c1', 'IC50', '> 100 µM'),
  ('COCC(=O)N1CCCC(CS(=O)(=O)NNC(=O)c2cc(-c3ccccc3)cc(C)c2F)C1 (stereo not shown)', 'IC50', '≤ 10 µM');

Hi! Can you tell me IC50 for each of these molecules?
1. Cc1cc(-c2ccccc2)cc(C(=O)NNS(=O)(=O)C2CCN(C(=O)OC(C)(C)C)CC2)c1F
2. Cc1cc(-c2ccccc2)cc(C(=O)NNS(=O)(=O)CC2CCOCC2)c1F
3. O=S(=O)(NNc1n[nH]c2ccc(-c3ccccc3)cc12)c1ccccc1

Result:
["≤ 10 µM", "≤ 10 µM", "> 100 µM"]

----------
Kindly supply the reported IC50 values for the records listed here.
target: KAT6A (Homo sapiens, UniProt Q92794)
Sequence (Q92794 with tags, fused parts or gaps): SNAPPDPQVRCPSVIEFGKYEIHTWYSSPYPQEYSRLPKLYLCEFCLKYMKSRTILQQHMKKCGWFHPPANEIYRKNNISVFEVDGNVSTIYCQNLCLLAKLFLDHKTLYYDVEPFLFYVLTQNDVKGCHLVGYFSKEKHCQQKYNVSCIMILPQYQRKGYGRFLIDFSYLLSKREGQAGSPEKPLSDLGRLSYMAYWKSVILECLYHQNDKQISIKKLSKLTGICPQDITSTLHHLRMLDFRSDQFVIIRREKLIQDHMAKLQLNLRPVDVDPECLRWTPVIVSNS

INSERT INTO assay_data (compound, value_reported) VALUES
  ('CNC(=O)CCNC(=O)c1cc(Cl)c(F)c(C(=O)NNS(=O)(=O)C2CCCCC2)c1 [Compound I-474]', '> 100 µM'),
  ('COc1ccccc1CN1CCC(S(=O)(=O)NNC(=O)c2cc(-c3ccccc3)cc(C)c2F)C1 (centres unmarked) [Compound I-25]', '10 to 50 µM');

Hi! Can you tell me IC50 for each of these compounds?
1. Cc1cc(-c2cccc(F)c2)cc(C(=O)NNS(=O)(=O)CC2CNCCO2)c1F (centres unmarked) [Compound I-428]
2. Cc1cc(-c2ccccc2)cc(C(=O)NNS(=O)(=O)C2CN(C(=O)OCc3ccccc3)C2)c1F [Compound I-121]
3. Cc1cc(-c2cccc(F)c2)cc(C(=O)NNS(=O)(=O)C2CCCCC2)c1F [Compound I-323]
4. COc1cccc(CN2CCC(S(=O)(=O)NNC(=O)c3cc(-c4ccccc4)cc(C)c3F)C2)c1 (centres unmarked) [Compound I-26]
5. Cc1nc(-c2cccc(F)c2)cc(C(=O)NNS(=O)(=O)CC2CCCN(C(=O)C3CCC3)C2)c1F (centres unmarked) [Compound I-291]
6. Cc1cc(-c2cccc(F)c2)cc(C(=O)NNS(=O)(=O)C2CCOC2)c1F (centres unmarked) [Compound I-438]

Result:
["≤ 10 µM", "10 to 50 µM", "≤ 10 µM", "≤ 10 µM", "≤ 10 µM", "10 to 50 µM"]
